Recorded percentage of EdU-negative, one value per entry.
- Tested on: hTERT-HMEC;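 further: secreted proteins added to cultured cells, EdU pulse at the end, nuclei found by Hoechst imaging, EdU status from nuclear versus surrounding ring intensity ratio, PBS as neutral control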
- experimental-protocol: percentage of EdU-negative (G0-arrested) nuclei per well, 72 h; higher = more G0 arrest
- measurement-setup: protein concentration 0.3125 µM; reference: sequence is the full UniProt precursor, the tested protein was the secreted form or ectodomain
measurement-kind: percentage of EdU-negative (%)

| item-sequence | measurement-kind | assay-value |
| --- | --- | --- |
| MAGPLRAPLLLLAILAVALAVSPAAGSSPGKPPRLVGGPMDASVEEEGVRRALDFAVGEYNKASNDMYHSRALQVVRARKQIVAGVNYFLDVELGRTTCTKTQPNLDNCPFHDQPHLKRKAFCSFQIYAVPWQGTMTLSKSTCQDA | percentage of EdU-negative | 5.7 |
| MEMLQGLLLLLLLSMGGAWASREPLRPWCHPINAILAVEKEGCPVCITVNTTICAGYCPTMMRVLQAVLPPLPQVVCTYRDVRFESIRLPGCPRGVDPVVSFPVALSCRCGPCRRSTSDCGGPKDHPLTCDHPQLSGLLFL | percentage of EdU-negative | 5.19 |
| MSSAAGFCASRPGLLFLGLLLLPLVVAFASAEAEEDGDLQCLCVKTTSQVRPRHITSLEVIKAGPHCPTAQLIATLKNGRKICLDLQAPLYKKIIKKLLES | percentage of EdU-negative | 5.01 |
